- TEST: In vivo pharmacokinetics in infected mice (plasma, LC-MS/MS)
- Design: species or system BALB/c mice
- MEASUREMENT_SETUP: BALB/c, mouse, plasma, po, 150 mg/kg, Group 1 quartet CFZ 20/BDQ 25/PA824 50/PZA 150 mg/kg oral; steady state, infected mice; read-out: Cmax in Quartet
Reported Cmax by item:
Numeric only. Scale: ng/mL

O=[N+]([O-])c1cn2c(n1)OC[C@@H](OCc1ccc(OC(F)(F)F)cc1)C2; 7800
CC(C)/N=c1\cc2n(-c3ccc(Cl)cc3)c3ccccc3nc-2cc1Nc1ccc(Cl)cc1; 2400
COc1nc2ccc(Br)cc2cc1[C@@H](c1ccccc1)[C@@](O)(CCN(C)C)c1cccc2ccccc12; 2600

Kindly review the next molecule as well.
Value of Cmax reported for the molecule NC(=O)c1cnccn1 [Pyrazinamide] is 64000
